measured_target: FOXO3a-DBD RRR/AAA (Homo sapiens, UniProt O43524 158-253, R248A;R249A;R250A)
Sequence (O43524 158-253 R248A/R249A/R250A): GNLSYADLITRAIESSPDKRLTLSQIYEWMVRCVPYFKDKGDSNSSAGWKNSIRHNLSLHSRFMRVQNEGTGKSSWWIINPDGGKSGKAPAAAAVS
experiment_summary: fluorescence anisotropy
recorded_endpoint: Kd
State the result as a value with its unit after it.

Task: Find the measured Kd of 26-bp FOXO consensus FA duplex (dsDNA) DNA 1: CGCATCCTATGTAAACAACTCGAGTC DNA 2: GACTCGAGTTGTTTACATAGGATGCG and report it.
Output: 1180 nM
